# TEST_METHOD_NOTES: chemical genetic growth profiling, strain panel (AID 1159580);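 also: tested at 20 µM; growth read once vehicle control cultures reached saturation at 30 °C; 1 = growth at the plate median or of vehicle wells; lower values mean less growth of the strain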
# CONDITION_INFO: S. cerevisiae deletion strains, growth OD, locus YBR021W, strain FUR4
The campaign covered roughly 5,500 compounds. About 2,000 (36%) were called active. Another 18% or so got no clear call; they are omitted. Rule as the data show it: active = normalized growth mostly below about 0.91 (no sharp cut-off); inconclusive = no clear call, values can overlap the other calls; inactive = mostly above about 0.92. Some of the results follow.
Mark one answer only. Choices: 1 for active, 0 for inactive

Query: Outcome? `COc1cc2c(cc1OC)C(=O)c1ccc(OC)c(OC)c1OCC(=O)C2`
Response: 0

Query: Then this molecule: `COc1cc(OC)c2c(c1)O[C@H](c1cc(OC)c(OC)c(OC)c1)[C@H](OC(=O)c1cc(OC)c(OC)c(OC)c1)C2`
Response: 0

Query: Next entry: `CC1(C)S[C@@H]2[C@H](NC(=O)[C@H](N)c3ccccc3)C(=O)N2[C@H]1C(=O)O`
Response: 0

Query: CC[C@@H](C(=O)C(C)[C@@H](O)[C@H](C)CCc1ccc(C)c(O)c1C(=O)O)C1OC(CC)(C2CC[C@](O)(CC)[C@H](C)O2)C[C@@H]1C (some centres undefined) ?
Response: 1

* * *

So I've got a bunch of compounds here, and I need their normalized growth values.
# TEST_METHOD_NOTES: chemical genetic growth profiling, strain panel (AID 1159580);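 also: tested at 20 µM; growth read once vehicle control cultures reached saturation at 30 °C; 1 = growth at the plate median or of vehicle wells; lower values mean less growth of the strain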
# CONDITION_INFO: S. cerevisiae deletion strains, growth OD, locus YMR125W, strain sto1, active compounds read low
Hit rate of the full screen: of about 5,500 compounds, about 2,000 (36%) were called active. About 18% were inconclusive and are not listed. The list shows a part of the results.
Just the number, please.

Query: Look up normalized growth for this compound: CCC(C)C(=O)O[C@@H]1C[C@@]2(C)[C@H](c3ccoc3)OC(=O)CC23OC2(C)O[C@]14[C@]1(C)[C@@H](CC(=O)OC)C5(C)CC1(O)[C@](O)(C5OC(=O)C1(C)OC1C)[C@@H](OC(C)=O)[C@]34O2 (some centres not stated)
Response: 0.991

Query: Check COC(=O)C[C@H]1C2(C)CC34OC5(C)O[C@@]6([C@H](OC)C(OC(=O)C(C)C)[C@]7(C)C(/C(=C(/OC)C(C)C)C(=O)O[C@H]7c7ccoc7)[C@@]6(O5)[C@H](OC)[C@@]3(OC)C2OC(C)=O)[C@]14C (some centres not stated) too.
Response: 0.986

* * *

# TEST_METHOD_NOTES: chemical genetic growth profiling, strain panel (AID 1159580);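 also: tested at 20 µM; growth read once vehicle control cultures reached saturation at 30 °C; 1 = growth at the plate median or of vehicle wells; lower values mean less growth of the strain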
# CONDITION_INFO: S. cerevisiae deletion strains, growth OD, locus YJL166W, strain qcr8, active compounds read low
Out of some 5,500 compounds screened, about 2,000 (36%) were called active. Roughly 18% stayed inconclusive and do not appear here. The list shows a part of the results.
Could you please report measured normalized growth for the items listed next?
Respond with the number and no other words.

Query: Form field: reported normalized growth of C[C@]12CCC(=O)C=C1C=CC1C2CC[C@@]2(C)C1CC[C@@]2(O)CCC(=O)O (some centres not stated)
Response: 0.996

Query: Thanks! And OCC(O)CN1CCN(c2ccccc2)CC1 (configuration not stated) ?
Response: 1

Query: // same read-out, input: c1ccc2c(c1)CCCC2C1=NCCN1 (configuration not stated)
Response: 1.02

Query: And the next one, `CCOC(=O)n1ccn(C)c1=S` ?
Response: 0.986

Query: What do you get for CC1COc2c(N3CCN(C)CC3)c(F)cc3c(=O)c(C(=O)O)cn1c23 (configuration not stated) ?
Response: 0.969

Query: For CCCCC/C=C/CCC(=O)N[C@H]1[C@H](Oc2c3cc4cc2Oc2ccc(cc2Cl)[C@@H](O[C@@H]2O[C@H](CO)[C@@H](O)[C@H](O)[C@H]2NC(C)=O)[C@@H]2NC(=O)[C@H](NC(=O)[C@@H]4NC(=O)[C@H]4NC(=O)C(Cc5ccc(c(Cl)c5)O3)NC(=O)[C@H](N)c3ccc(O)c(c3)Oc3cc(O)cc4c3)c3ccc(O)c(c3)-c3c(OC4O[C@H](CO)[C@@H](O)[C@H](O)[C@@H]4O)cc(O)cc3[C@@H](C(=O)O)NC2=O)O[C@H](CO)[C@@H](O)[C@@H]1O (some centres not stated) then?
Response: 0.993

Query: Param item: CC(=O)S[C@@H]1CC2=CC(=O)CC[C@]2(C)[C@H]2CC[C@@]3(C)[C@@H](CC[C@@]34CCC(=O)O4)C12 (some centres not stated)
Response: 1.04

Query: Also `CCCc1cc(C(N)=S)ccn1` ?
Response: 0.95

Query: Try this compound next: `c1ccc2c(c1)sc1ccccc12`
Response: 0.652

Query: Proceed to `O=C(O)/C=C/c1ccc(O)c(O)c1`
Response: 1

Query: Lookup C[C@@H]1CC(Cl)CC[C@H]1C(=O)OC(C)(C)C (some centres not stated)
Response: 0.986

Query: What do you have for O=C(/C=C/c1ccc(O)c(O)c1)OC(Cc1ccc(O)c(O)c1)C(=O)O (configuration not stated) ?
Response: 1.03

Query: Now try `Cc1ccc(C(=O)Nc2ccc(S(=O)(=O)O)c3cc(S(=O)(=O)O)cc(S(=O)(=O)O)c23)cc1NC(=O)c1cccc(NC(=O)Nc2cccc(C(=O)Nc3cc(C(=O)Nc4ccc(S(=O)(=O)O)c5cc(S(=O)(=O)O)cc(S(=O)(=O)O)c45)ccc3C)c2)c1` .
Response: 1.03

Query: Same read-out for `O=S(=O)(O)c1cc(N=C=S)ccc1/C=C/c1ccc(N=C=S)cc1S(=O)(=O)O` ?
Response: 1.02

Query: Queued: COc1c(N2CCNC(C)C2)c(F)cc2c(=O)c(C(=O)O)cn(C3CC3)c12 (configuration not stated)
Response: 1

Query: Again, but for `CCn1cc(C(=O)O)c(=O)c2cc(F)c(N3CCNCC3)nc21`
Response: 0.981

Query: And for CCn1cc(C(=O)O)c(=O)c2cc(F)c(N3CCNC(C)C3)c(F)c21 (configuration not stated) ?
Response: 0.998

The reported numbers originate from PubChem BioAssay AID1159580.
